Tested on: RXF 393 renal
METHOD SUMMARY: NCI tumour cell line growth inhibition, 48 h; in the data active = GI50 below about 0.43 µM; inactive = the rest
Pick from class 1 = active, class 0 = inactive when you respond.

{"MOLECULE": "COC(=O)c1ccc2c(c1)nc(-c1ccc(Cl)cc1)n2-c1cc(C(C)(C)C)[nH]n1", "SYSTEM TESTED": "RXF 393 renal", "CAT": "class 0"}
{"MOLECULE": "COc1ccc(C(=O)Nc2cccc(C3CC(=O)c4c(cc(OC)c(OC)c4OC)O3)c2)cc1 (configuration not stated)", "SYSTEM TESTED": "RXF 393 renal", "CAT": "class 0"}
{"MOLECULE": "CC(=O)OC1CC2(O)C(CCC3(C)C(c4ccc(=O)oc4)CCC32O)C2(C)CCC(O)C=C12 (configuration not stated)", "SYSTEM TESTED": "RXF 393 renal", "CAT": "class 1"}
{"MOLECULE": "COC(=O)c1c(-c2ccccc2)csc1NC(=O)c1c(-c2ccccc2)noc1C", "SYSTEM TESTED": "RXF 393 renal", "CAT": "class 0"}

Inquiry: Which result was noted for this molecule in the test: N#C/C(=C/N1CCN(C(=O)c2ccco2)C1=S)C(N)=O
Reply text: class 0

Inquiry: Which result was noted for this molecule in the test: Cc1ccccc1NC(=O)NC(CC(N)=O)c1ccc2c(c1)nc(-c1cccc(Oc3ccc(C(C)(C)C)cc3)c1)n2CCCN1CCCCC1C (configuration not stated)
Reply text: class 0

Inquiry: Which result was noted for this molecule in the test: COc1ccc(-n2c(N)c(C(=O)NCCN3CCOCC3)c3nc4ccccc4nc32)cc1OC
Reply text: class 0
